Biological target: ERα protein (HiBiT-tagged) in ESR1_HiBiT KI MCF7 cells (Homo sapiens, UniProt P03372)
Sequence (P03372 whole entry): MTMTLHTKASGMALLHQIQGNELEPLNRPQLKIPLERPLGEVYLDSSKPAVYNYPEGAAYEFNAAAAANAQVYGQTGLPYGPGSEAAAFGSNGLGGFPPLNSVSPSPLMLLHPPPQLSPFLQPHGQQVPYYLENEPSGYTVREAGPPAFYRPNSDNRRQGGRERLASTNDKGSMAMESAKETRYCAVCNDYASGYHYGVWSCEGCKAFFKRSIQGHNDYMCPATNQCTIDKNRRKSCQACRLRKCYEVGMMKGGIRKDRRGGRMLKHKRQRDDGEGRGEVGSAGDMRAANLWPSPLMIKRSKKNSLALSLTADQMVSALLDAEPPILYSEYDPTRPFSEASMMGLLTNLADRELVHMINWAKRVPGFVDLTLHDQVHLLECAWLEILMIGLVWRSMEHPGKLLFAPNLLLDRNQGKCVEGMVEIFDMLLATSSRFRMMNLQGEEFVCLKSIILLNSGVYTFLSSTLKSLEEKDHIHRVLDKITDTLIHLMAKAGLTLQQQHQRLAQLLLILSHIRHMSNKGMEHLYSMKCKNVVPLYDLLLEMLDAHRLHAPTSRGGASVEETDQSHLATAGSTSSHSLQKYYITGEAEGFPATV
Assay: Nano Glo HiBiT Lytic Degradation Assay
Type: cell-based
Details: 6 hours with compound, 14-point dose response 1:3, bell-shape curve fit, half-maximal effect of first Hill model, read-out: MCF7 ESR1 HiBiT - (DC50)
Some compounds, each annotated with its measured DC50.
Form entry: value (nM) — number only.

{"COMPOUND": "CC(C)c1ccccc1[C@@H]1OCc2cc(O)ccc2[C@@H]1c1ccc(N2CCC(CN3CCN(c4ccc5c(c4)CN([C@H]4CCC(=O)NC4=O)C5=O)CC3)CC2)cc1", "ASSAY_READOUT": "DC50", "MEASUREMENT_UNIT": "nM", "RECORDED_RESULT": 17}
{"COMPOUND": "Cc1ccc([C@@H]2CC(F)(F)c3cc(O)ccc3[C@@H]2c2ccc(N3CCC(CN4CCN(c5ccc6c(c5)CN(C5CCC(=O)NC5=O)C6=O)CC4)CC3)cc2)cc1 (stereo in doubt)", "ASSAY_READOUT": "DC50", "MEASUREMENT_UNIT": "nM", "RECORDED_RESULT": 0.44}

With those in mind, consider the next compound.
Look up and state reported DC50 for Cc1cc(F)c([C@H]2CC(F)(F)c3cc(O)ccc3[C@H]2c2ccc(N3CCC(CN4CCN(c5ccc6c(c5)CN([C@H]5CCC(=O)NC5=O)C6=O)CC4)CC3)cc2)cc1F (single isomer, unassigned) 0.56

====

Target: ERα protein (HiBiT-tagged) in ESR1_HiBiT KI MCF7 cells (Homo sapiens)
Assay: Nano Glo HiBiT Lytic Degradation Assay
Assay type: cell-based
Conditions: 6 hours with compound, 14-point dose response 1:3, bell-shape curve fit, half-maximal effect of first Hill model, read-out: MCF7 ESR1 HiBiT - (DC50)
Let's look at some compounds and their measured DC50.
Value expressed in nM; do not type the unit.

Some entries whose results are on file:
{"COMPOUND": "O=C1CC[C@H](N2Cc3cc(N4CCN(CC5CCN(c6ccc([C@H]7c8ccc(O)cc8CO[C@]78CCc7ccccc78)cc6)CC5)CC4)ccc3C2=O)C(=O)N1", "MEASUREMENT_UNIT": "nM", "DC50": 4}
{"COMPOUND": "Cc1cc(F)c([C@@H]2CC(F)(F)c3cc(O)ccc3[C@@H]2c2ccc(N3CCC(CN4CCN(c5ccc6c(c5)CN([C@H]5CCC(=O)NC5=O)C6=O)CC4)CC3)cc2)cc1F (single isomer, unassigned)", "MEASUREMENT_UNIT": "nM", "DC50": 11}
{"COMPOUND": "C[C@@]1(c2ccccc2)CCc2cc(O)ccc2[C@@H]1c1ccc(N2CCC(CN3CCN(c4ccc5c(c4)CN([C@H]4CCC(=O)NC4=O)C5=O)CC3)CC2)cc1", "MEASUREMENT_UNIT": "nM", "DC50": 424}
{"COMPOUND": "Cn1nc([C@@H]2CCC(=O)NC2=O)c2ccc(N3CCN(CC4CCN(c5ccc([C@@H]6c7ccc(O)cc7CC[C@@H]6c6ccccc6)cc5)CC4)CC3)cc21 (single isomer, unassigned)", "MEASUREMENT_UNIT": "nM", "DC50": 1}
{"COMPOUND": "CC(C)[C@@H]1CCc2cc(O)ccc2[C@@H]1c1ccc(N2CCC(CN3CCN(c4ccc5c(c4)CN(C4CCC(=O)NC4=O)C5=O)CC3)CC2)cc1 (stereo in doubt)", "MEASUREMENT_UNIT": "nM", "DC50": 5}

In one line, give reported DC50 of the entry Cn1c(=O)n(C2CCC(=O)NC2=O)c2cccc(N3CCN(CC4CCN(c5ccc([C@@H]6c7ccc(O)cc7CC[C@@H]6c6ccccc6)cc5)CC4)CC3)c21 (stereo partly shown) . 1.09

Return value of DC50 for input "O=C1CC[C@H](N2Cc3cc(N4CCN(CC5CCN(c6ccc([C@@H]7c8ccc(O)cc8CC[C@@H]7C7CCCCC7)nc6)CC5)CC4)ccc3C2=O)C(=O)N1" , no commentary. 0.82
